Parameter: Kd. Scope: all listed entries.
molecular target: T1, human CD33 on the AML-derived HL60 cell line (human, UniProt P20138 18-364); test: FACS Scatchard analysis on HL60 cells
T1 construct: whole, on cells; also called CD33 expressing HL60 cell line
T1 sequence (P20138 18-364): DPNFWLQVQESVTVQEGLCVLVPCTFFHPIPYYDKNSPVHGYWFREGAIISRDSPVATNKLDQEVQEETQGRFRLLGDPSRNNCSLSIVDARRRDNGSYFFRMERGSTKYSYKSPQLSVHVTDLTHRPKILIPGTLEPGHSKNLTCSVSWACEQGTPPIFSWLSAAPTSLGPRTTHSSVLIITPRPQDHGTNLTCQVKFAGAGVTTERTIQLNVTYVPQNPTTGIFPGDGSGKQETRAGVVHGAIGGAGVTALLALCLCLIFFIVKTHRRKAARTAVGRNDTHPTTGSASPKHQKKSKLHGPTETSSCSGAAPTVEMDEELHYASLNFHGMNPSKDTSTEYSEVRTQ
Value expressed in nM; do not type the unit.

Sample answers from the record:
INSERT INTO assay_data (binder, parameter, endpoint_value) VALUES
  ('280-50-01(mut) (antibody, human IgG1, kappa, V domains shown, Fully human monoclonal antibody; also called No 8) VH: QVQLVQSGAEVKKPGSSVKVACKASGDTFSSYAISWVRQAPGQGLEWMGRVIPIIGIASYAQNFQGRVTITADRSTSTAYMALSSLRSEDTAVYYCARNWADAFDIWGQGTMVTVSS VL: DIQLTQSPSSLSASVGDRVTITCRASQGISSVLAWYQQKPGKAPKLLIYAASSLESGVPSRFSGSGSGTDFTLTISSLQPEDFATYYCQQFDSSITFGQGTKVEIKR', 'Kd', 0.4),
  ('280-61-07 (antibody, human IgG1, kappa, V domains shown, Fully human monoclonal antibody; also called No 9; Clone ID# 280-61-07) VH: QVQLVQSGAEVKKPGSSVKVACKASGDTFSSYAISWVRQAPGQGLEWMGRVIPIIGIASYAQNFEGRVTITADRSTSTAYMALSSLRSEDTAVYYCARNWADAFDIWGQGTMVTVSS VL: DIQLTQSPSSLSASVGDRVTITCRASQGISSVLAWYQQKPGKAPKLLIYAASSLESGVPSRFSGSGSGTDFTLTISSLQPEDFATYYCQQFNSSITFGQGTKLEIKR', 'Kd', 0.3);

Kindly review the next binder as well.
Exam item: Please look at this binder and report its Kd: 280-34-02 (antibody, human IgG1, kappa, V domains shown, Fully human monoclonal antibody; also called No 6; Clone ID# 280-34-02) VH: QVELVQSGAEVQKPGSSVKVSCKASGDTFSSYAISWVRQAPGQGLEWMGRIIPIVGIVNYAEKFQGRVTITADKSMSTAYMELSSLRSEDTAVYYCARNWADAFDIWGQGTMVTVSS VL: DIQLTQSPSSLSASVGDRVTITCRASQGISSALAWYQQKPGKAPKLLIYDASRLESGVPSRFSGSGSGTDFTLTISSLQPEDFTTYYCQQFNSSYTFGQGTKLEIKR
Marked response: 0.3
